experimental-details: Hematology assays in cynomolgus monkeys (Example 45)
Assay type: in vivo
settings: day 57
I'd be grateful if you could share measured basophils for these entries.
Numeric only. Scale: %

Tell me basophils reported for ISIS 416858: MOE gapmer, nucleobases 1275 to 1318 of SEQ ID NO: 1 (Table 8) (antisense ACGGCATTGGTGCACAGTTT; MOE gapmer, wing and gap sizes not given here) 0.2

Item ISIS 416838: MOE gapmer, nucleobases 1018 to 1042 of SEQ ID NO: 1 (Table 6) (antisense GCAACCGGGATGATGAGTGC; MOE gapmer, wing and gap sizes not given here) : provide basophils 0.3

Return the recorded basophils value; entry: ISIS 417002: MOE gapmer, nucleobases 1275 to 1318 of SEQ ID NO: 1 (Table 8) (antisense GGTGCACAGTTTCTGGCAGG; MOE gapmer, wing and gap sizes not given here) 0.3

###

System: human Factor 11 mRNA
experimental-details: Dose-dependent inhibition of human Factor 11 in HepG2 cells, electroporation 625-20,000 nM (Example 5)
Format: cell-based
settings: 625 nM, ~16 hours
Method: The gapmers were also transfected via electroporation and their dose dependent inhibition of human Factor 11 mRNA was measured. […] After a treatment period of approximately 16 hours, RNA was isolated from the cells and human Factor 11 mRNA levels were measured by quantitative real-time PCR. […] Factor 11 mRNA levels were adjusted according to total RNA content, as measured by RIBOGREEN. […]
measurement-name: percent inhibition of human Factor 11 mRNA relative to untreated control cells (%)
Numbers only here, please. The scale is %.

Identify measured percent inhibition of human Factor 11 mRNA relative to untreated control cells obtained with human Factor 11 mRNA for 417003 (antisense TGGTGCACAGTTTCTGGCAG; 2-13-5 gapmer chemistry, further chemistry not given here) [compound 417003] . 60

System human Factor 11 mRNA. Read-out percent inhibition of human Factor 11 mRNA relative to untreated control cells. Item 416925 (antisense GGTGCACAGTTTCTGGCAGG; 3-14-3 gapmer chemistry, further chemistry not given here) [compound 416925] . Report value. 64

Report the value of percent inhibition of human Factor 11 mRNA relative to untreated control cells obtained on human Factor 11 mRNA for 416999 (antisense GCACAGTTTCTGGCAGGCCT; 2-13-5 gapmer chemistry, further chemistry not given here) [compound 416999] . 61

For human Factor 11 mRNA, give percent inhibition of human Factor 11 mRNA relative to untreated control cells of the listed substance: 416892 (antisense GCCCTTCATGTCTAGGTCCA; 3-14-3 chimeric gapmer, further chemistry not given here) [compound 416892] 66

Give percent inhibition of human Factor 11 mRNA relative to untreated control cells; test system human Factor 11 mRNA; substance 417002 (antisense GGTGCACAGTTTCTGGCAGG; 2-13-5 gapmer chemistry, further chemistry not given here) [compound 417002] 59

###

experimental-details: Bleeding assay, Surgicutt Jr. device (Example 45)
Assay type: in vivo, cynomolgus monkeys
Set-up: unit not given here
settings: day 85; escalating dose regimen
measurement-name: bleeding time

Give the measured bleeding time for ISIS 417002: MOE gapmer, nucleobases 1275 to 1318 of SEQ ID NO: 1 (Table 8) (antisense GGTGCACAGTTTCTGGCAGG; MOE gapmer, wing and gap sizes not given here) 182

Provide only the value of recorded bleeding time for ISIS 416864: MOE gapmer, nucleobases 1275 to 1318 of SEQ ID NO: 1 (Table 8) (antisense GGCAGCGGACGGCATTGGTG; MOE gapmer, wing and gap sizes not given here) 203

Item ISIS 416850: MOE gapmer, nucleobases 1275 to 1318 of SEQ ID NO: 1 (Table 8) (antisense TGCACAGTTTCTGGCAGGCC; MOE gapmer, wing and gap sizes not given here) : provide bleeding time 201

State its bleeding time: ISIS 416838: MOE gapmer, nucleobases 1018 to 1042 of SEQ ID NO: 1 (Table 6) (antisense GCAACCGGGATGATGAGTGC; MOE gapmer, wing and gap sizes not given here) 201

For ISIS 416858: MOE gapmer, nucleobases 1275 to 1318 of SEQ ID NO: 1 (Table 8) (antisense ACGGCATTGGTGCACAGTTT; MOE gapmer, wing and gap sizes not given here) , write its bleeding time. 191

###

experimental-details: Liver function, ALT, AST, bilirubin in cynomolgus monkeys (Example 45)
Assay type: in vivo
settings: plasma; day 85; escalating dose regimen
measurement-name: Bilirubin (mg/dL)
Record the value in mg/dL, omitting the unit from your answer.

Supply recorded Bilirubin for ISIS 417002: MOE gapmer, nucleobases 1275 to 1318 of SEQ ID NO: 1 (Table 8) (antisense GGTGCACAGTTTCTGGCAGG; MOE gapmer, wing and gap sizes not given here) here. 0.12

Give reported Bilirubin value for ISIS 416838: MOE gapmer, nucleobases 1018 to 1042 of SEQ ID NO: 1 (Table 6) (antisense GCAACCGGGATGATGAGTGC; MOE gapmer, wing and gap sizes not given here) 0.13

###

Consider the following substances; for each one, report its MCV.
experimental-details: Hematology assays in cynomolgus monkeys (Example 46)
Assay type: in vivo
settings: Day 31
Strand notation (5' to 3'): a small letter for the sugar, then the base; units joined by * are phosphorothioate-linked, units joined directly phosphodiester-linked; [ ] holds rarer units or linkages, { } end groups; capitals alone tell only the bases. e = 2'-O-(2-methoxyethyl) (MOE); [5mC] = 5-methylcytosine; d = 2'-deoxy (DNA)
Report the value in fL with no unit label.

Give MCV for ISIS 449709: 3-8-3, 4-8-4, 2-10-2, 3-10-3 or 4-10-4 MOE microwalk gapmer (Table 46) (antisense eG*e[5mC]*eA*e[5mC]*dA*dG*dT*dT*dT*d[5mC]*dT*dG*dG*d[5mC]*eA*eG*eG*e[5mC]) 73

Retrieve MCV measured for ISIS 416858: MOE gapmer, nucleobases 1275 to 1318 of SEQ ID NO: 1 (Table 8) (antisense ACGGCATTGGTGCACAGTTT; MOE gapmer, wing and gap sizes not given here) and print it. 76

Answer with reported MCV of ISIS 416850: MOE gapmer, nucleobases 1275 to 1318 of SEQ ID NO: 1 (Table 8) (antisense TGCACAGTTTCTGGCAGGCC; MOE gapmer, wing and gap sizes not given here) 75

Find the measured MCV of ISIS 449708: 3-8-3, 4-8-4, 2-10-2, 3-10-3 or 4-10-4 MOE microwalk gapmer (Table 46) (antisense eA*e[5mC]*eA*dG*dT*dT*dT*d[5mC]*dT*dG*dG*e[5mC]*eA*eG) and report it. 75

Annotate the substance ISIS 445522: 5-8-5 or 6-8-6 MOE microwalk gapmer (Table 44) (antisense eG*e[5mC]*eA*e[5mC]*eA*dG*dT*dT*dT*d[5mC]*dT*dG*dG*e[5mC]*eA*eG*eG*e[5mC]) with its measured MCV. 75

# return recorded MCV for entry ISIS 449710: 3-8-3, 4-8-4, 2-10-2, 3-10-3 or 4-10-4 MOE microwalk gapmer (Table 46) (antisense e[5mC]*eA*e[5mC]*dA*dG*dT*dT*dT*d[5mC]*dT*dG*dG*d[5mC]*eA*eG*eG) 75

###

Test system: human Factor 11 mRNA
experimental-details: Antisense inhibition of human Factor 11 in HepG2 cells, electroporation, 8,000 nM (Example 30)
Type: cell-based
settings: electroporation, 8,000 nM antisense oligonucleotide
Strand notation (5' to 3'): a small letter for the sugar, then the base; units joined by * are phosphorothioate-linked, units joined directly phosphodiester-linked; [ ] holds rarer units or linkages, { } end groups; capitals alone tell only the bases. e = 2'-O-(2-methoxyethyl) (MOE); [5mC] = 5-methylcytosine; d = 2'-deoxy (DNA)
For each record, write down the corresponding Percent inhibition of human Factor 11 mRNA levels.
Just the number in %, nothing appended.

Could you please provide reported Percent inhibition of human Factor 11 mRNA levels for 445519 (antisense e[5mC]*eA*eG*eT*eT*dT*d[5mC]*dT*dG*dG*d[5mC]*dA*dG*eG*e[5mC]*e[5mC]*eT*e[5mC]) [compound 445519] ? Thanks! 81

For the substance 445540 (antisense eG*e[5mC]*eA*eG*e[5mC]*dG*dG*dA*d[5mC]*dG*dG*d[5mC]*dA*eT*eT*eG*eG*eT) [compound 445540] , report Percent inhibition of human Factor 11 mRNA levels. 74

Return Percent inhibition of human Factor 11 mRNA levels (reported value) for this substance: 416854 (antisense eA*eT*eT*eG*eG*dT*dG*d[5mC]*dA*d[5mC]*dA*dG*dT*dT*dT*e[5mC]*eT*eG*eG*e[5mC]) [compound 416854] 86

###

experimental-details: Hematology assays in cynomolgus monkeys (Example 45)
Assay type: in vivo
settings: day −5
Please go through the items and note down their platelet count.
Answer as a quantity: numeral, then unit.

Answer with the recorded platelet count for the substance listed here: ISIS 416850: MOE gapmer, nucleobases 1275 to 1318 of SEQ ID NO: 1 (Table 8) (antisense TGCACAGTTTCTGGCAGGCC; MOE gapmer, wing and gap sizes not given here) 573000 µL⁻¹

Hello, please tell me recorded platelet count for this one: ISIS 416838: MOE gapmer, nucleobases 1018 to 1042 of SEQ ID NO: 1 (Table 6) (antisense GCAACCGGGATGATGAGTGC; MOE gapmer, wing and gap sizes not given here) 425000 µL⁻¹

State its platelet count for this substance: ISIS 416858: MOE gapmer, nucleobases 1275 to 1318 of SEQ ID NO: 1 (Table 8) (antisense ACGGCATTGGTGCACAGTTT; MOE gapmer, wing and gap sizes not given here) 463000 µL⁻¹

Given the substance ISIS 417002: MOE gapmer, nucleobases 1275 to 1318 of SEQ ID NO: 1 (Table 8) (antisense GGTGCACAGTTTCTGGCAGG; MOE gapmer, wing and gap sizes not given here) , write its reported platelet count. 466000 µL⁻¹

State, in one line, measured platelet count of ISIS 416864: MOE gapmer, nucleobases 1275 to 1318 of SEQ ID NO: 1 (Table 8) (antisense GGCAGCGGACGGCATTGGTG; MOE gapmer, wing and gap sizes not given here) 456000 µL⁻¹
